B1: LINE1-full (parent)
chain: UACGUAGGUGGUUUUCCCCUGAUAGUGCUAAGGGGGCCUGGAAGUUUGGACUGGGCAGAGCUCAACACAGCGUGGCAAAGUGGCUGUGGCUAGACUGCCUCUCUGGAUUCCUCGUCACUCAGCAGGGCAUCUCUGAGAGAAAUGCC

# Variants of: B1
# PROTOCOL_DESCRIPTION: self-cleavage, relative activity (ratio to wild type); higher = more cleavage; in vitro, sequencing; the parent is a self-cleaving ribozyme
QUANTITY_NAME: self-cleavage

UACGUAGGUGGUUUUCCCCUGAUAGUGCUAAGGGGGCCUGGAAGUUUGGACUGGGCAGAGCUCAACACAGCGUGGCAAAGUGGCCGUGGCAAGACUGCCUCUCUGGAUUCCUCGUCACUCAGCAGGGCAUCUCUGAGAGAAAUGCC [U85C U91A]	0.14
UACGUAGGGGGUUUUCCCCUGAUAGUGCUAAGGGGGCCUGGAAGUUUGGACUGGGCAGAGCUCAACACAGCGUGGCAAAGUGGCUGUGGCUAGACUGCCUCACUGGAUUCCUCGUCACUCAGCAGGGCAUCUCUGAGAGAAAUGCC [U9G U102A]	1.44
UACGUAGGUGGUUUUCCCCUGAUAGUGCUAAGGGGGCCUGGAAGUUUGGUCUGGGCAGAGCUCAACACAGCGUGGCAAAGUGGCUGUGGCUAGACUGCCUCUCUGGAUUCCUCGUCACUCAGCAGGGCAUCUCUGAGAGGAAUGCC [A50U A140G]	1.05
UACGUAGGUGGUUUUCCCCUGAUAGUGCUAAGGGGGCCUGGAAGUUUGGACUGGGCGGAGCUUAACACAGCGUGGCAAAGUGGCUGUGGCUAGACUGCCUCUCUGGAUUCCUCGUCACUCAGCAGGGCAUCUCUGAGAGAAAUGCC [A57G C63U]	0.17
UACGUAGGUGGUUUUCCCCUGAUAGUGCUAAGGGGGCCUGGAAGUUUGGACUGGGCAGAGCUCAACACAGCUUGGCAAAGUGGCUGCGGCUAGACUGCCUCUCUGGAUUCCUCGUCACUCAGCAGGGCAUCUCUGAGAGAAAUGCC [G72U U87C]	0.32
UACGUAGGUGGUUUUCCCCUGUUAGUGCUAAGGGGGCCUGGAAGUUUGGACUGGGCAGAGCUCAACACAGCGUGGCAAAGUGGCUGUGGCUAGACUGCCUCUCUGGAUUCCUCGUCACACAGCAGGGCAUCUCUGAGAGAAAUGCC [A22U U119A]	1.46
